molecular target: Histone deacetylase (HDAC1 and HDAC2) (Homo sapiens, UniProt Q13547+Q92769); assay: Inhibition of HDAC1/HDAC2 from human Hela nuclear extracts using [3H]acetylated histone peptide by colorimetry; assay type: protein assay
As shown below, each of these molecules has a reported IC50 value.
Observable: IC50 (µM)

Molecule	Tested System	Recorded Number
COc1cc(CCC(=O)Nc2ccc(C(=O)NO)cc2)ccc1OCc1ccc(Br)cc1	Histone deacetylase (HDAC1 and HDAC2) (Homo sapiens, UniProt Q13547+Q92769)	0.8
COc1cc(CCC(=O)Nc2ccc(C(=O)NO)cc2)ccc1OC1CCCC1	Histone deacetylase (HDAC1 and HDAC2) (Homo sapiens, UniProt Q13547+Q92769)	4
O=C(CCc1ccc2c(c1)OCO2)Nc1ccc(C(=O)NO)cc1	Histone deacetylase (HDAC1 and HDAC2) (Homo sapiens, UniProt Q13547+Q92769)	0.4
COc1cc(CCC(=O)Nc2ccc(C(=O)NO)cc2)ccc1OCc1cccc(Cl)c1	Histone deacetylase (HDAC1 and HDAC2) (Homo sapiens, UniProt Q13547+Q92769)	1.6
COc1cc(CCC(=O)Nc2ccc(C(=O)NO)cc2)ccc1OCc1ccccc1Br	Histone deacetylase (HDAC1 and HDAC2) (Homo sapiens, UniProt Q13547+Q92769)	0.6
COc1cc(CCC(=O)Nc2ccc(C(=O)NO)cc2)ccc1OCc1cccc(Br)c1	Histone deacetylase (HDAC1 and HDAC2) (Homo sapiens, UniProt Q13547+Q92769)	0.9
COc1ccc(CCC(=O)Nc2ccc(C(=O)NO)cc2)cc1OC	Histone deacetylase (HDAC1 and HDAC2) (Homo sapiens, UniProt Q13547+Q92769)	3.3
COc1cc(CCC(=O)Nc2ccc(C(=O)NO)cc2)ccc1OCc1ccccc1Cl	Histone deacetylase (HDAC1 and HDAC2) (Homo sapiens, UniProt Q13547+Q92769)	1.2
CCCCOc1ccc(CCC(=O)Nc2ccc(C(=O)NO)cc2)cc1OC	Histone deacetylase (HDAC1 and HDAC2) (Homo sapiens, UniProt Q13547+Q92769)	1.6
COc1cc(CCC(=O)Nc2ccc(C(=O)NO)cc2)ccc1OCc1ccc(C)cc1	Histone deacetylase (HDAC1 and HDAC2) (Homo sapiens, UniProt Q13547+Q92769)	1.5
COc1cc(CCC(=O)Nc2ccc(C(=O)NO)cc2)ccc1OCc1ccccn1	Histone deacetylase (HDAC1 and HDAC2) (Homo sapiens, UniProt Q13547+Q92769)	3.9
COc1cc(CCC(=O)Nc2ccc(C(=O)NO)cc2)ccc1OCc1ccccc1	Histone deacetylase (HDAC1 and HDAC2) (Homo sapiens, UniProt Q13547+Q92769)	0.7
CCCOc1ccc(CCC(=O)Nc2ccc(C(=O)NO)cc2)cc1OC	Histone deacetylase (HDAC1 and HDAC2) (Homo sapiens, UniProt Q13547+Q92769)	1.7
COc1cc(CCC(=O)Nc2ccc(C(=O)NO)cc2)ccc1OCCC(C)C	Histone deacetylase (HDAC1 and HDAC2) (Homo sapiens, UniProt Q13547+Q92769)	2.9
COc1cc(CCC(=O)Nc2ccc(C(=O)NO)cc2)ccc1OCc1cccc(C)c1	Histone deacetylase (HDAC1 and HDAC2) (Homo sapiens, UniProt Q13547+Q92769)	2.6
COc1cc(CCC(=O)Nc2ccc(C(=O)NO)cc2)ccc1OCc1ccccc1C	Histone deacetylase (HDAC1 and HDAC2) (Homo sapiens, UniProt Q13547+Q92769)	1.8
COc1cc(CCC(=O)Nc2ccc(C(=O)NO)cc2)ccc1OCc1cccs1	Histone deacetylase (HDAC1 and HDAC2) (Homo sapiens, UniProt Q13547+Q92769)	0.3
CCC(C)Oc1ccc(CCC(=O)Nc2ccc(C(=O)NO)cc2)cc1OC (stereo not given)	Histone deacetylase (HDAC1 and HDAC2) (Homo sapiens, UniProt Q13547+Q92769)	2.2
COc1cc(CCC(=O)Nc2ccc(C(=O)NO)cc2)ccc1OCc1ccc(Cl)cc1	Histone deacetylase (HDAC1 and HDAC2) (Homo sapiens, UniProt Q13547+Q92769)	1.4
CCOc1ccc(CCC(=O)Nc2ccc(C(=O)NO)cc2)cc1OC	Histone deacetylase (HDAC1 and HDAC2) (Homo sapiens, UniProt Q13547+Q92769)	2.9
